This collection of values is drawn from patent US9278954B2.

# testedOn: human ACC2 (Homo sapiens (Human))
# Sequence (O00763 129-2458): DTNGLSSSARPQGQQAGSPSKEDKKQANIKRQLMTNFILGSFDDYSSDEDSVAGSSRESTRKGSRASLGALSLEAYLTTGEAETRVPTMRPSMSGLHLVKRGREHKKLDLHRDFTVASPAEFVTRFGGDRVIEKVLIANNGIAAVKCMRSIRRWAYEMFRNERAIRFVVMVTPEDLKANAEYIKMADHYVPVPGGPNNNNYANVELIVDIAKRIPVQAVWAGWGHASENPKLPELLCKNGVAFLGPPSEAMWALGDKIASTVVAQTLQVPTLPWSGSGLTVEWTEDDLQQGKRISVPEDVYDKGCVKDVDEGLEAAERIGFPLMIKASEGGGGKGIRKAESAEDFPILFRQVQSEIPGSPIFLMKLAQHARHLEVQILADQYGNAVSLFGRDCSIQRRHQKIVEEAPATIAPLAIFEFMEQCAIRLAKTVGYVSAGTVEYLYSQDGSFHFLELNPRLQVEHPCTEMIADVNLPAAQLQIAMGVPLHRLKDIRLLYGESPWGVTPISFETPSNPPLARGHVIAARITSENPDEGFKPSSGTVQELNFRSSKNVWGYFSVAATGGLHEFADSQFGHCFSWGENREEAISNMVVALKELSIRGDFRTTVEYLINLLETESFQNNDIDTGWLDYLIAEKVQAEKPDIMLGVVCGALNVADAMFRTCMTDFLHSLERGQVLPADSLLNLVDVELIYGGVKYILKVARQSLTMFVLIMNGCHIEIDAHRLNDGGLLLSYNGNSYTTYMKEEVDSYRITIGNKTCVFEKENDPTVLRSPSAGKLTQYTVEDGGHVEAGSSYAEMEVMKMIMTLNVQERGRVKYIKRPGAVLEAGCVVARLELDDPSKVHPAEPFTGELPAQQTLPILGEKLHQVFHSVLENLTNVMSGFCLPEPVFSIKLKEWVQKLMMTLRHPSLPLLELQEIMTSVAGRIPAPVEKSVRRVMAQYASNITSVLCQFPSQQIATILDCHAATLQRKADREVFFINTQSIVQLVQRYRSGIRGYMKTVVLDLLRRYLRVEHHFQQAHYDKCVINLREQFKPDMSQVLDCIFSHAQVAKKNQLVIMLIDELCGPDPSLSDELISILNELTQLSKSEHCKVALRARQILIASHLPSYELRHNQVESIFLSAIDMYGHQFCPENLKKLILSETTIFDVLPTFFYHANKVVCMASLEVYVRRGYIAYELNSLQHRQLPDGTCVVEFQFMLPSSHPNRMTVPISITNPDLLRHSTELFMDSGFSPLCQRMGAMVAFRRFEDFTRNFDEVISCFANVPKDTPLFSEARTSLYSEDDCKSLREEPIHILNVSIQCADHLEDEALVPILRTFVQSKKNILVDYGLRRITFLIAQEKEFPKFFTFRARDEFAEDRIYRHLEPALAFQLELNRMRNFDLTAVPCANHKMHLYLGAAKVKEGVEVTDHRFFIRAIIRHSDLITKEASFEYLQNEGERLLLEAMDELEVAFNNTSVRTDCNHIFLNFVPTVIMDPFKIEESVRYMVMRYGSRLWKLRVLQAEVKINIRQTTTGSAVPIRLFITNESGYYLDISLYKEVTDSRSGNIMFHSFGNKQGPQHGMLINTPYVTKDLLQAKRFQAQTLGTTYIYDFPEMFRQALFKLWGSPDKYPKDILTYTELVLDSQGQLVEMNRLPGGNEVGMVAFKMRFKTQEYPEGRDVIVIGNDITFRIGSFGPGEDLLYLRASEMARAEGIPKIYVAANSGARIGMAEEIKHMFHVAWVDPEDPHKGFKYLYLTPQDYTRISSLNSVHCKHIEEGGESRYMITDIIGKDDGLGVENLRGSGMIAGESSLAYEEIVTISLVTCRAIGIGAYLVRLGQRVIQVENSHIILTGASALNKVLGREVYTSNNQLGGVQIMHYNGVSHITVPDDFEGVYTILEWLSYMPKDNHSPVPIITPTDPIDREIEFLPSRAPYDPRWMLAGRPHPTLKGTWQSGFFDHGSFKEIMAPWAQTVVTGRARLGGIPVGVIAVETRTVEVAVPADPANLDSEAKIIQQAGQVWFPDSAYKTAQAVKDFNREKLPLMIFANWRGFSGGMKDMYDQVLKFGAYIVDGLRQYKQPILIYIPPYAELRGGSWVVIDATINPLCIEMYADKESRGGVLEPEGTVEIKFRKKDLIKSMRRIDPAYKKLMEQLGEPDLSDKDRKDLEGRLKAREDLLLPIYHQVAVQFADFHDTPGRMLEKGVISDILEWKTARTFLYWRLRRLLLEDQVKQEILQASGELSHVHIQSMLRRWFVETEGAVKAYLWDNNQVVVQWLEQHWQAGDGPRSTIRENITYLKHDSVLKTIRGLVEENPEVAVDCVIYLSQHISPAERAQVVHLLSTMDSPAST
recordedMetric: pIC50
FYI, pIC50 means -log10 of a concentration in mol per litre.

molecule: CCNC(=O)C(C)c1ccc(O[C@@H]2CCN(c3ccc(OCC4CC4)cc3)C2)cc1 (stereo partly shown)
recordedMetric: pIC50
observedResult: 6.56
--
molecule: CCNC(=O)C(C)c1ccc(O[C@@H]2CCN(c3ccc(OCC4CCC4)cc3)C2)cc1 (stereo partly shown)
recordedMetric: pIC50
observedResult: 6.37
--
molecule: CC(C(=O)NCC1CC1)c1ccc(O[C@@H]2CCN(c3ncnc(OCC(C)(C)O)c3Cl)C2)cc1 (stereo partly shown)
recordedMetric: pIC50
observedResult: 5.97
--
molecule: CC(C(=O)NCC(F)F)c1ccc(O[C@@H]2CCN(c3ncnc(OCC(C)(C)O)c3Cl)C2)cc1 (single isomer, unassigned) [6.5 isomer 2]
recordedMetric: pIC50
observedResult: 6.06
--
molecule: CCNC(=O)C(C)c1ccc(O[C@@H]2CCN(c3ccc(OCC4CC4)nc3)C2)cc1 (stereo partly shown)
recordedMetric: pIC50
observedResult: 6.33
--
molecule: CCCNc1nccc(N2CC[C@@H](Oc3ccc(C(C)C(=O)NCC4CC(F)(F)C4)cc3)C2)c1F (stereo partly shown)
recordedMetric: pIC50
observedResult: 5.43

Now look at this one.
Measured pIC50, CCNC(=O)C(C)c1ccc(O[C@@H]2CCN(c3ccnc(C(F)(F)F)n3)C2)cc1 (stereo partly shown) : 6.01
